- experimental-target: human O-GlcNAcase (Homo sapiens (Human))
- Sequence (O60502 whole entry): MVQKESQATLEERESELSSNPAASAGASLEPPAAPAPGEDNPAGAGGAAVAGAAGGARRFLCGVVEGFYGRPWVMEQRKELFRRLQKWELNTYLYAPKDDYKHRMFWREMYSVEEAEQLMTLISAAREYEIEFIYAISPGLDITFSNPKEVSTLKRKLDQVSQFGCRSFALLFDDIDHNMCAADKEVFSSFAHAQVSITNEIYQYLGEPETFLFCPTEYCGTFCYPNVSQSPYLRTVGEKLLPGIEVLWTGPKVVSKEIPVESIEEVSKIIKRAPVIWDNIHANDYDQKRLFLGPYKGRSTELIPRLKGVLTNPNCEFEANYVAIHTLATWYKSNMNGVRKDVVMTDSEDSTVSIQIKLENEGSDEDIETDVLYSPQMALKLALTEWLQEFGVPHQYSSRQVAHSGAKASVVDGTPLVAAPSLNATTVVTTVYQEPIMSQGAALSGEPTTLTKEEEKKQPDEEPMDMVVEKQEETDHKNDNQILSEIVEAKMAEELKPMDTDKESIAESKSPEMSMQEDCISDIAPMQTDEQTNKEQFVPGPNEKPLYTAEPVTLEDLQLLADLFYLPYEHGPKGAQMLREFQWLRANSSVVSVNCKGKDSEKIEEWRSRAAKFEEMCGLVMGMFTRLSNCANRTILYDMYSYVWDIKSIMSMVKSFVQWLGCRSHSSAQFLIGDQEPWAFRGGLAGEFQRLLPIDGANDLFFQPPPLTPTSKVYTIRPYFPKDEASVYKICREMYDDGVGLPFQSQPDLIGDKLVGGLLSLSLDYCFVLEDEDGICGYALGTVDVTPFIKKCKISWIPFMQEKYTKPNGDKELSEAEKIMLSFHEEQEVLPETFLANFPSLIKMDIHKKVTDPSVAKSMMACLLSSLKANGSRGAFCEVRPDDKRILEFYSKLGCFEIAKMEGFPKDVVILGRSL
Measured pKi accompanies every entry in the list below.
Convention used: pKi is expressed as -log10 of the molar concentration.

Example results:
CNC1=N[C@@H]2[C@@H](O)[C@H](O)[C@@H](CO)C[C@@H]2S1 : 9.70
CN(C)C1=N[C@@H]2[C@@H](O)[C@H](O)[C@@H](CO)C[C@@H]2S1 : 9.30
OC[C@H]1C[C@@H]2OC(NCCF)=N[C@@H]2[C@@H](O)[C@@H]1O [Example 32, 2,2,2-trifluoroacetate] : 8.60

Now consider the entry below.
Provide pKi, tested on human O-GlcNAcase (Homo sapiens (Human)), for OC[C@H]1C[C@@H]2OC(N3CCC3)=N[C@@H]2[C@@H](O)[C@@H]1O .
9.89
